Reference source for all entries: PubChem BioAssay (NCI)

System: SW-620 colon
Experiment: NCI tumour cell line growth inhibition, 48 h; in the data active = GI50 below about 0.43 µM; inactive = the rest
Hi! Could you answer with just one of these? active, inactive

# count of solved cases: 3
C#CCNC(=O)CC[C@]1(C)[C@H]2CC[C@@H]3[C@@H]([C@@](C)(O)CCC=C(C)C)CC[C@@]3(C)[C@]2(C)CC[C@H]1C(=C)C	inactive
CC1OC(OC2CC(O)C3(CO)C4C(O)CC5(C)C(C6=CC(=O)OC6)CCC5(O)C4CCC3(O)C2)C(O)C(O)C1O (stereo not drawn)	active
COC(=O)[C@H](CC(C)C)NC(=O)NC(=O)NC(=O)CI	inactive

Problem: Assay outcome for Cc1cc(-c2nc(-c3ccc(OC(F)(F)F)cc3)no2)nn1Cc1ccnc(N2CCN(C3CC3)CC2)c1 : what was it?
Result: inactive

Problem: Assay outcome for c1ccc(-c2nn(-c3ccccc3)[n+](-c3cccc4ccccc34)n2)cc1 : what was it?
Result: inactive

Problem: Assay outcome for CC[CH2][Sn]([Cl])([Cl])[CH2]CC : what was it?
Result: inactive

Problem: Assay outcome for CCOC(=O)c1c(C)n2c(=O)cc(C)c3c(OC(C)=O)c(OC(C)=O)cc1c32 : what was it?
Result: inactive

Problem: Assay outcome for Clc1ccc(-c2nn3ncccc3c2-c2ccnc(Nc3ccccc3)n2)cc1 : what was it?
Result: inactive

Problem: Assay outcome for COC(=O)Nc1nc2cc3c(cc2s1)OCCO3 : what was it?
Result: inactive

Problem: Assay outcome for NCC1OC(OC2C(CO)OC(OC3C(O)C(N)CC(N)C3OC3OC(CO)C(O)C(O)C3N)C2O)C(N)C(O)C1O (stereo not drawn) : what was it?
Result: inactive

Problem: Assay outcome for COc1ccc(C2=C(c3cc(OC)c(OC)c(OC)c3)C(=O)CC2)cc1 : what was it?
Result: active

Problem: Assay outcome for COc1cc([C@@H]2c3cc4c(cc3[C@@H](O[C@@H]3O[C@@H]5CO[C@@H](c6cccs6)O[C@H]5[C@H](O)[C@H]3O)[C@H]3COC(=O)[C@H]23)OCO4)cc(OC)c1O : what was it?
Result: active

Problem: Assay outcome for COc1cccc(C2NC(=S)NC(C)=C2C(=O)Nc2ccc(F)c(Cl)c2)c1 (stereo not drawn) : what was it?
Result: inactive
